Assay: label from the status in PepcDB records
Measured quantity: protein production

Identify measured protein production associated with MTKQPDLLKVDWSAIPAPDDDGAAAHLPGARIQPVALPATDGSSVTLSSLPGRTVLFIYPRTGVPGQISLVDDWDMIPGARGCTPQTCSFRDLFTDLKTAGADAVFGLSTQSSAYQSEMATRLHLPFPVLSDESLELTRALNMPTMQVAGMTLLKRMALIIDDGRISHVFYPVFPPDRNAGDVLEWLKANPR failed

Identify measured protein production associated with FFSVSNIGLHARAYKDKLFVHTASLRSGNPYKQVDLLVLDAKGETVLQGATDDNGNALLNYTLNAGHVLVSRNGRDISILPFNQPALDLSEFAVAGRENPWFDVFAWSGRDLYRPGEMLRISALLRDRDGKPVKPQPVFLRLKQPDGKTFRETRLQPAEQGYLEFTQKIPSDAPTGRWRVEFRTDPASKEAVQGLAVRVEEFLPERMKLELSSAQPVLRAKAPFTLTADAAYLYGAPAAGNRFTANLAVAVEQHPLDNMPGWFFGDATL failed

Identify measured protein production associated with MTNGKIWLVVKPTVGVPLFLSAAVIASVVIHAAVLTTTTWLPDYYQGSAKVAAE failed

Identify measured protein production associated with MIYENHANTAENNGPLALVLGANGGVGSHVLKMLLQRGWQVRALTRQRVAAGASDGIERVTGDVMNRQDVMDAAKGATLIVHAVNPPGYRDWERQVLPMLDNTIAAAEACGARILLPGTVYNFGPDAFPLLKEDSPQQPFTRKGALRVEMERRLKMASMRGVPVLIVRAGDFFGPDAKNNWFSQMLVRPGKPVRSVQNPAAPHAGHQWAYLPDVAETIGRLLDRSGELPPFAVYHMEGFWDFDGLQLVGAIERAVGRPVKMRRMSWLAIKLAAPFVPLFREVLEMQYLWHMPLRMSNGKLTDFLGAEPKTPVDIAVSATLTSLGCIEQPRVPASLHRPVDAGGRV failed

***
Identify measured protein production associated with MALREMIIDESDDIESYSDQSLCLDKAKELLALIKLPTGLLPLKDMTEVGYNKTKGFVWMRMRSKIEHTFREIGRRVLYDTEITAFVEDRRMRRLTGVKSKELMIWVPVNDIFIKRKILRRSPLLIPPACHEHLKFQHFNVRVDKLKEKRSNQTSLM failed

Identify measured protein production associated with MIEITFLGGGGGRFVTITQVRATGGFFIKASKNIYVDPGPGALVRMWRYKIDPRKVDVLFISHRHTDHCNDAEVLVEGMTYGVTKKRGTLIGSKSVVHGDENHTPALSKYHLDALEEVHAPNPGDRFKIGEDEMIITPSLHSDPTTIGFRLKTSYGDISYIPDTEYFEELVKWHDGARVIIAAVTRPRDMRIPFHLSSEDAVYLLKSMKQKPEVFIMTHAGMKMHFAGPYKEAQFIQNLTGVKTYVAKEGFKVSIGKEISVKTLRPARFVLEHHHHHH not failed

Identify measured protein production associated with MALNVAPVRDTKWLTLEVCRQFQRGTCSRSDEECKFAHPPKSCQVENGRVIACFDSLKGRCSRENCKYLHPPTHLKTQLEINGRNNLIQQKTAAAMLAQQMQFMFPGTPLHPVPTFPVGPAIGTNTAISFAPYLAPVTPGVGLVPTEILPTTPVIVPGSPPVTVPGSTATQKLLRTDKLEVCREFQRGNCARGETDCRFAHPADSTMIDTSDNTVTVCMDYIKGRCMREKCKYFHPPAHLQAKIKAAQHQANQAAVAAQAAAAAATVMAFPPGALHPLPKRQALEKSNGTSAVFNPSVLHYQQALTSAQLQQHAAFIPTVPMMHSATSATVSAATTPATSVPFAATATANQIILK not failed

Identify measured protein production associated with MTTESAWTRWPSREALGREGLSRPRRMLAWTVRALVLAMLLWGAFSSSHVHGWGAVAAAAGVLLAAGASWAFFRTTLQHRLWPSLALIAVLLGIAIVAQTAGFQVPALVIWCGCAVSALERLPLAAALPVTTAALAAYAAVDNDVWLTTAATIAGLFLAGYVLRLDAEARGSAQRLLAQERAARAAETQSAALAERARIAREIHDVLAHSLSAQLVHLEAARLLIERGADREQILGRVVAARGMAREGLAETRQALSALRGEISPLEDFLSELVAFEDGADVTVSGERRLLTAEASQAVRRVAQEALTNVRKHAPGAKVQVKLEYGERQVTLHVRDSGGKPGDLTGSGAGYGLLGMRERAELLGGSLEAGREEKGFVVTLKVPA failed

Identify measured protein production associated with MGLKSNSAILPKALFCWSGGKDSAYCLHKVLLEKQFDVCYLLTTVNDTFKRISMHGVRETLLDKQTESIGIPCIKIRIKEGTNSEYEQLMETTLLKAKEEGITHVIFGDIFLEDLRTYRENNLDKVGLQAVFPLWKMDTGILIRDFIRKKFKTILCCINDGYLDETWAGREIDAVFIAQLPGHVDPCGENGEYHTFCYDGPLFQKAITVSTGEKIYKPLDYSLDDVCQSTVPTKGFWYCDLIPD failed

Identify measured protein production associated with MPSPVLIAIDASPASSTLLTLARRYCRPGEHELHVLLAIDSTFAVHEQPAPYTAEELEEYPAACQEQQHADHAVAEAVRELQQAGFASQGCMVAGLPVEAIVTKAQELNCELIIMGHRHLSRLGRLLDPSISAKVIDRVDMPVLV failed

---

Experiment: label from the status in PepcDB records
Measured quantity: protein production

Worked cases, answers included:
Identify measured protein production associated with MTGCSHRFYYSHMIQTSVRSFEVGEDLASMAVDERISLLRSRMQSISKSGDFSLDYNCKTADKNIIPLSDPLSHVLPWGGLPRGMIVESTITPLLAILFIAQVSGSGRRVGVVGWPDLNYAGVLGYGGCYERIFAVPQQERTSLRVVTALAHGCDLVITRAGPTPRTYTPLQTQRFRNSLRSDAGCVIMMGDHVVSPAARLASAVVGYHGIGKGTGRIKAVEITVTGIAKGFYRTSRVIVGKHIAPAAEKTTMKVVLEHHHHHH not failed

Identify measured protein production associated with MAKVVKLEPISRETTVNTNDNLLSALLDSELHVLKECGGRGMCATCHVYIKEGMESLSPINKREQRTLEVITTANATSRLACQARVLGPGVVVELPSG failed

Identify measured protein production associated with ERRLCAILAADMAGYSRLMERNETDVLNRQKLYRRELIDPAIAQAGGQIVKTTGDGMLARFDTAQAALRCALEIQQAMQQREEDTPRKERIQYRIGINIGDIVLEDGDIFGDAVNVAARLEAISEPGAICVSDIVHQITQDRVSEPFTDLGLQKVKNITRPIRVWQWVPDADRDQSHDPQPSHVQH not failed

Identify measured protein production associated with MIETTAALAEACTELAKSEFITIDTEFLRETTFWPELCLVQMASPTLEVLVDPLAKGIDLTPMFELMANPNVVKVFHAARQDIEIIYHLGGLIPHPIFDTQVAAMVCGFGDSISYDQLVQKIKNVQIDKSSRFTDWSRRPLTEKQLDYALADVTHLRDVYLSLKAQLEREGRSLWLTEEMNILESRDTYDMHPDDAWLRLKSRLRKPTELAILKFVAAWREREARSRNVPRSRVLKDDGIFEIAQQQPKDAEALSRLRTIPKGWERSASGTAIIETVNAALALPKEEMPKAPRHSHAPEGSGAAVELLKVLLKLTADKHGVAAKVIANSDDLDKIASEGENATVAALTGWRRELFGDVALKLINGEVALRFAGKKVEAVEVEAAASES failed

Identify measured protein production associated with MPWLLPREIAPLHQKALDRYLGSLTERLSDPNVDRNALVREELARLLYGRPYEELLEANPLAAMGLDPEGITFEAEYYAATDLEKFRRVKPLLWFWKVLDLTPLGQSVHSGVAIRRALAPFIFKRVGKNPKFFQNVEFSVGYNLELGDDVVVHRYVFLDDIGGIKIGDRTSLSDYVNVYSHTHHVLASPDVTLKETIIGSGVRITYHATVLAGVRIGDDAMVGTGAVVTKDIPPHAIALGIPARPVRYKVRHDCPYCRKGEPHPSDLVPKLPDRKGNPDYPDFLPPGFGTREAGS failed

Identify measured protein production associated with QEGIISLDTEGRVVLMNPKAEEMTGRSQNESCGLPIEDVFILWSPLQDKNQLVAINQCLAEGRHTLLPEGSQLLSSQGERQEIRCSASPIRDRDNLLTGAVVVFQDVTRARHEQRELQYQANHDMLTGLINRRRLEERLNQAISQLGQDEQHILCYVDLDYFKDVNDSAG failed

***
Identify measured protein production associated with MAKHRLDALLVERGLCPSRQQAQRLIRAGEVRVAQAIVDKPGSLVAEDAVIEVAAKPPYVSRGGEKLAKALATFPIALSDRICLDAGISTGGFTDCLLQAGASKVYGIDVGYGQVDWKIRTDPRVLLRERTNIRNLQPTDLYGSDDVWPDLAVADLSFISLTKVLLTLGQLLRSPRELILLVKPQFEVGREKVGKGGVVRDRKDHVTAIAQVLESAQGLGWHGQGLTWSPLLGPAGNVEYLLWLSEAETTWAGDRAAIEALTTEAIATLRAGLEHHHHHH not failed

Identify measured protein production associated with MIELIDPISKQRLEESPEGLRNENGIVVYPLINGAYRVAASDNYTSNFGLEWNTFQKTQIDKFSGNTVSEERLFAQTNWQKNGLEGETILEVGSGAGRFSQIMLDHTKATLYSVDYSEAVEANYRNNGPHERFKLFQASIYELPFKQASFDRVICLGVLQHTPDFKASVKALVEMVKPGGELVIDFYPIRNVFTKVHGKYLLRPILKRVNHHRLMSLIRNNIDFLISIYTFNRRIGLGVFNRFVPICEIERTLPKGMTPEQLKEWIILDTFDMFSPEYDQPQRLSTVAKWVKEFGMADVDASWVTYHGKLEAPTVRGRKVLEHHHHHH not failed

Identify measured protein production associated with MPSLPDRRRWLLDGARDTVPMMVGAAPFGLIFGTLAIAAGLSPAATAAMSLLVFAGSSQFIAVSLVSAGAALPVIWLTTFVVNLRHALYSATLLPYARPWPLAWRWPLAFWLTDETFAVVEHRFRSLGAEGGQWYWLGSSLSMYLNWQLWTLAGVALGRSVPGLDRLGLDFAMVATFAAIVAPQLKKRPTLAAALAAGAVALLARGLPYKLDLMLAALAGVAAGMMVERGQKREAA failed

Identify measured protein production associated with MTDNPFATPTAPVQPPAREVPATTQPYAFIAVLALVTCLSFAVSLGIQWYNDIGEIRQRFSEHLQLMAPHWFTGLVFYAAANLLVLHAYREKRQLVEFRPLALLLIGYGLLNLVCGMLAGIGLAPLTLPFYQWVTAQSSYGVWLMAFNEAMSWVYLLLGSLLPLGLVLLGSRVNSPRLAEGEEARVAAWQVALGAALCFATLCFKLMQFLPYALLRYDEPWLYGLYLSGVALPAALLFGAVCTRLPARLQRFAAGRALLLAVVAMLLWSVALLAVGGGLALLMILGLAPAGIGYTLLVALLGVGLLALLWPIGRLATRWCYADQLAA failed

Identify measured protein production associated with MIPFPESRLAAQMSFVVEIDKLKTILRQTLLTDSSRRENDAEHSWHIATMAFLLAEYADEAVQIGRVARMLLIHDIVEIDAGDTFIHDEAGNEDKEERERKAAARLFGLLPPDQAAEYSALWQEYEARETADARFADALDRLQPLLHNFETEGGTWKPHGVTRAKVDKLLPRIEAGSKRLGAYARALVDEAVRRGYLAP not failed

Identify measured protein production associated with MGVNETGYVLIYGGSSWVSQPQALETIYPAENWQEIIQDFRQKQPDLPVVVIQGPDDEQFVRSLRDYSLDIKVTSPDNVGKLTAMIAGANLMLTTDSAPLHLSVAVQTYTIALFGSTDPVKLLPNSDKLLGIKSSTGRVADILPKAVLEKVWGGLEHHHHHH failed

Each recorded value in this set is attributed to a protein production outcome set (Wang et al. 2014).
